experimental_conditions: in methanol, 313.32 K
measured_property: solubility (mole fraction)
Just the number.

Fill in: solubility (mole fraction) of COC(=O)/C=C(\C)NC(C(=O)[O-])c1ccc(O)cc1.[K+] (stereo unspecified) is ___
0.00453

====

experimental_conditions: in methanol, 308.19 K
measured_property: solubility (mole fraction)
Just the number.

Fill in: solubility (mole fraction) of COC(=O)/C=C(\C)NC(C(=O)[O-])c1ccc(O)cc1.[K+] (stereo unspecified) is ___
0.00426

====

experimental_conditions: in methanol, 322.45 K
measured_property: solubility (mole fraction)

Fill in: solubility (mole fraction) of COC(=O)/C=C(\C)NC(C(=O)[O-])c1ccc(O)cc1.[K+] (stereo unspecified) is ___
0.00505

====

experimental_conditions: in ethanol, 318.23 K
measured_property: solubility (mole fraction)
Just the number.

Fill in: solubility (mole fraction) of COC(=O)/C=C(\C)NC(C(=O)[O-])c1ccc(O)cc1.[K+] (stereo unspecified) is ___
0.000635

====

experimental_conditions: in methanol, 283.28 K
measured_property: solubility (mole fraction)
Just the number.

Fill in: solubility (mole fraction) of COC(=O)/C=C(\C)NC(C(=O)[O-])c1ccc(O)cc1.[K+] (stereo unspecified) is ___
0.00303

====

experimental_conditions: in ethanol, 283.26 K
measured_property: solubility (mole fraction)
Just the number.

Fill in: solubility (mole fraction) of COC(=O)/C=C(\C)NC(C(=O)[O-])c1ccc(O)cc1.[K+] (stereo unspecified) is ___
0.000342

====

experimental_conditions: in methanol, 318.11 K
measured_property: solubility (mole fraction)
Just the number.

Fill in: solubility (mole fraction) of COC(=O)/C=C(\C)NC(C(=O)[O-])c1ccc(O)cc1.[K+] (stereo unspecified) is ___
0.0048

====

experimental_conditions: in methanol, 298.31 K
measured_property: solubility (mole fraction)
Just the number.

Fill in: solubility (mole fraction) of COC(=O)/C=C(\C)NC(C(=O)[O-])c1ccc(O)cc1.[K+] (stereo unspecified) is ___
0.00375

====

experimental_conditions: in ethanol, 323.11 K
measured_property: solubility (mole fraction)
Just the number.

Fill in: solubility (mole fraction) of COC(=O)/C=C(\C)NC(C(=O)[O-])c1ccc(O)cc1.[K+] (stereo unspecified) is ___
0.000694

====

experimental_conditions: in ethanol, 303.29 K
measured_property: solubility (mole fraction)
Just the number.

Fill in: solubility (mole fraction) of COC(=O)/C=C(\C)NC(C(=O)[O-])c1ccc(O)cc1.[K+] (stereo unspecified) is ___
0.000481
